- System: SNB-19
- Protocol notes: NCI tumour cell line growth inhibition, 48 h
The source made the active and inactive calls. No stated cut-off is given here; in the data, active = GI50 up to about 1.1 µM and inactive = higher.
One label from this list, please: YES = active, NO = inactive

# count of solved cases: 2
# Compound, Label
records = [
    ("Cc1c(N)nc([C@H](CC(N)=O)NC[C@H](N)C(N)=O)nc1C(=O)N[C@H](C(=O)N[C@H](C)[C@@H](O)CC(=O)N[C@H](C(=O)NC(O[C@@H]1O[C@@H](C)[C@@H](N)[C@@H](O)[C@H]1O)C(O)c1nc(-c2nc(C(=O)NCCC[S+](C)C)cs2)cs1)[C@@H](C)O)[C@H](O[C@@H]1O[C@@H](CO)[C@@H](O)[C@H](O)[C@@H]1O[C@H]1O[C@H](CO)[C@@H](O)[C@H](OC(N)=O)[C@@H]1O)c1c[nH]cn1 (some centres undefined)", "NO"),
    ("CC(=O)c1cccc(NC(=O)C(=O)C(C(=O)NN)c2ccccc2)c1 (centres undefined)", "NO"),
]

For `CCCN(CCC)CCc1ccc(OC2=CCN(C)CC2)cc1` , which call appears in the assay record?
NO

Moving on to `CCN(CC)CCSc1c2ccccc2nc2c(OC)ccc(OC)c12`
NO

Let us now turn to `COC(=O)c1c(C(=O)OC)c(C(c2ccccc2)c2ccccc2)n(-c2ccccc2)c1Cl`
NO

Input `COC1=C(OC)C(=O)C(Cc2c(C)nc3sccn23)=C(C)C1=O`
NO

Let us now turn to `N#Cc1c(-c2ccc([N+](=O)[O-])cc2)c(C#N)c(=O)n(NS(=O)(=O)c2ccccc2)c1S`
NO

Likewise for CC(C)(C)C1=NN=C2c3ccccc3C(=O)C21 (centres undefined) ?
NO
